# targetOrTestSystem: hGLP-1R (Homo sapiens, UniProt P43220)
# protocolText: cell-based or functional assay
Where no end group is shown, it is not given here. Side-chain parts run from the residue outwards. [ ]: non-standard residue; d: D form. The star is where a group is joined. Decanoyl(10-(4-HOOC-PhO)) = O=C(O)c1ccc(OCCCCCCCCCC(=O)*)cc1; αMePhe(2-F) = C[C@](N)(Cc1ccccc1F)C(=O)O; αMeY = C[C@](N)(Cc1ccc(O)cc1)C(=O)O; αMeL = CC(C)C[C@](C)(N)C(=O)O; Orn = NCCC[C@H](N)C(=O)O; AEEA = NCCOCCOCC(=O)O; Aib = CC(C)(N)C(=O)O
measure: cAMP Emax

binder="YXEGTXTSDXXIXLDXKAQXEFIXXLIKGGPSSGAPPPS (Y-Aib-EGT-αMeF(2F)-TSD-4Pal-Aib-I-αMeL-LD-Orn-K((2-[2-(2-Amino-ethoxy)-ethoxy]-acetyl)2-(10-(4-carboxyphenoxy)decanoyl))AQ-Aib-EFI-(D-Glu)-αMeY-LIK((2-[2-(2-Amino-ethoxy)-ethoxy]-acetyl)2-(10-(4-carboxyphenoxy)decanoyl))GGPSSGAPPPS-NH2) [Example 395]" measuredresult=90.8%
binder="YXEGTXTSDYXIXLDXKAQXKFIXXLIEGGPSSGAPPPS (Y-Aib-EGT-αMeF(2F)-TSDY-Aib-I-αMeL-LD-Orn-K((2-[2-(2-Amino-ethoxy)-ethoxy]-acetyl)2-(10-(4-carboxyphenoxy)decanoyl))AQ-Aib-K((2-[2-(2-Amino-ethoxy)-ethoxy]-acetyl)2-(10-(4-carboxyphenoxy)decanoyl))FI-(D-Glu)-αMeY-LIEGGPSSGAPPPS-NH2) [Example 393]" measuredresult=96.8%
binder="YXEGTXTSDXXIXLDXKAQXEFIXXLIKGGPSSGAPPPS (Y-Aib-EGT-αMeF(2F)-TSD-4Pal-Aib-I-αMeL-LD-Orn-K((2-[2-(2-Amino-ethoxy)-ethoxy]-acetyl)3-(γ-Glu)-CO-(CH2)10-CH3)AQ-Aib-EFI-(D-Glu)-αMeY-LIK((2-[2-(2-Amino-ethoxy)-ethoxy]-acetyl)3-(γ-Glu)-CO-(CH2)10-CH3)GGPSSGAPPPS-NH2) [Example 423]" measuredresult=105%
binder="Y[Aib]EGT[αMePhe(2-F)]TSDV[Aib]I[αMeL]LD[Orn]K([AEEA-AEEA-Decanoyl(10-(4-HOOC-PhO))])AQ[Aib]EFI[dE][αMeY]LIK([AEEA-AEEA-Decanoyl(10-(4-HOOC-PhO))])GGPSSGAPPPS-NH2 [Example 397]" measuredresult=95.8%
binder="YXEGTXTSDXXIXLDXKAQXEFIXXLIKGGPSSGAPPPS (Y-Aib-EGT-αMeF(2F)-TSD-4Pal-Aib-I-αMeL-LD-Orn-K((2-[2-(2-Amino-ethoxy)-ethoxy]-acetyl)-(γ-Glu)-(10-(4-carboxyphenoxy)decanoyl))AQ-Aib-EFIe-αMeY-LIK((2-[2-(2-Amino-ethoxy)-ethoxy]-acetyl)-(γ-Glu)-(10-(4-carboxyphenoxy)decanoyl))GGPSSGAPPPS-NH2) [Example 361]" measuredresult=98.2%
binder="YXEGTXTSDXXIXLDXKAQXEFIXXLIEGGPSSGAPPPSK (Y-Aib-EGT-αMeF(2F)-TSD-4Pal-Aib-I-αMeL-LD-Orn-K((2-[2-(2-Amino-ethoxy)-ethoxy]-acetyl)-(y-Glu)-(10-(4-carboxyphenoxy)decanoyl))AQ-Aib-EFI-(D-Glu)-αMeY-LIEGGPSSGAPPPSK((2-[2-(2-Amino-ethoxy)-ethoxy]-acetyl)-(γ-Glu)-(10-(4-carboxyphenoxy)decanoyl))-NH2) [Example 362]" measuredresult=109%
